# Tested on: HepG 2.2.15 cells
# testMethodNotes: Cytotoxicity in HepG 2.2.15 cells (cell morphology by microscope after 8 days, Reed & Muench)
# Type: cell-based
# testConditions: pathological change of cells after 8 days
property: TD50

INSERT INTO measurements (smilesentry, reportedvalue) VALUES
  ('CCOC(=O)C1=C(C)NC(c2cncs2)=N[C@H]1c1ccc(F)cc1Cl', '>12.5 µM'),
  ('CCOC(=O)C1=C(C)NC(c2nccs2)=N[C@H]1c1ccc(F)cc1Cl', '>62.9 µM'),
  ('CCOC(=O)C1=C(C)NC(c2c(F)cc(F)cc2F)=N[C@H]1c1ccc(F)cc1Cl', '13.8 µM');

We next turn to a different molecule, shown below.
Look up TD50: "CC1=C(C(=O)OCC(F)(F)F)[C@H](c2ccc(F)cc2Cl)N=C(c2nccs2)N1" 37.4 µM
